value_kind: Ki

Ki value, target or system 5-hydroxytryptamine receptor 1E (Homo sapiens, UniProt P28566), for O=C(O)/C=C/C(=O)N1N=C(c2c(-c3ccc(Br)cc3)c3ccccc3[nH]c2=O)CC1c1ccc(Cl)cc1 (racemic) : > 10 µM

* * *

Please respond with reported Ratio IC50 for every item in the list.
Organism: Rattus norvegicus
protocol_notes: Selectivity ratio of IC50 for recombinant rat GluN2B receptor to IC50 for recombinant rat GluN2D receptor
Output: the number by itself.

Kindly note the recorded Ratio IC50 for O=C(O)CCC(=O)N1N=C(c2c(-c3ccccc3)c3cc(Cl)ccc3[nH]c2=O)CC1c1ccc(F)cc1 (stereo not given) , which is 6

Short answer for O=C(O)/C=C\C(=O)N1N=C(c2c(-c3ccccc3)c3cc(Cl)ccc3[nH]c2=O)CC1c1ccc(Br)cc1 (stereo not given) : Ratio IC50 was 7

Memo: O=C(O)CCC(=O)N1N=C(c2c(-c3cc(Cl)cc(Cl)c3)c3ccccc3[nH]c2=O)CC1c1ccc(Cl)cc1 (stereo not given) , reported Ratio IC50: 19

Lab note: measured Ratio IC50 of O=C(O)CCC(=O)N1N=C(c2c(-c3ccc(Cl)cc3)c3ccccc3[nH]c2=O)CC1c1ccccc1 (stereo not given) was 13

In plain terms, O=C(O)CCC(=O)N1N=C(c2c(-c3ccccc3)c3cc(Cl)ccc3[nH]c2=O)CC1c1ccc2c(c1)OCO2 (stereo not given) has a documented Ratio IC50 of 4

Ref: ChEMBL document CHEMBL2424574
